assay_system: Mcl-1 protein (Homo sapiens)
Sequence (Q07820 whole entry): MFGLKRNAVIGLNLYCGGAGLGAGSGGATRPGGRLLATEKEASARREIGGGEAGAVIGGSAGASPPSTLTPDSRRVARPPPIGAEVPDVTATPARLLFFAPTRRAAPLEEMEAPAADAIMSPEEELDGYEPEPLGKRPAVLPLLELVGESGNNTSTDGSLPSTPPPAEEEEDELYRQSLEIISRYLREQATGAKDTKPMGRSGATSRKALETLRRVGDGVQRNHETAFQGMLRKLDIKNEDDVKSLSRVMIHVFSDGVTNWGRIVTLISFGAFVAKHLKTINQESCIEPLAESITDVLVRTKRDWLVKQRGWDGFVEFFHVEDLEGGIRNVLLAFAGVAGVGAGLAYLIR
test_method_notes: Inhibition of Mcl-1 by the fluorescence polarisation technique
Type: binding
run_conditions: fluorescence polarisation test; Fluorescein labelled ligand 1 nM, Mcl-1 protein 5 nM, ~2 hours at r.t.; read-out: IC50 (M) Mcl-1 FP
reported_property: IC50 (M)

Use the examples below as a reference point.
compound: Cc1c(-c2c(-c3ccc(F)cc3)sc3ncnc(OC(Cc4ccccc4OCc4ccnc(-c5ccc(COC6OC(CO)C(O)C(O)C6O)cc5)n4)C(=O)O)c23)ccc(OCCN2CCN(C)CC2)c1Cl (stereo not shown) [Example 23]
assay_system: Mcl-1 protein (Homo sapiens)
IC50 (M): 2.7e-09
--
compound: Cc1c(-c2c(-c3ccc(F)cc3)sc3ncnc(OC(Cc4ccccc4OCc4ccnc(-c5cccc(COC(=O)NCCN6CCOCC6)c5)n4)C(=O)O)c23)ccc(OCCN2CCN(C)CC2)c1Cl (stereo not shown) [Example 42]
assay_system: Mcl-1 protein (Homo sapiens)
IC50 (M): 4.45e-09
--
compound: Cc1c(-c2c(-c3ccc(F)cc3)sc3ncnc(OC(Cc4ccccc4OCc4ccnc(-c5cccc(COC(=O)NCCN6CCN(C)CC6)c5)n4)C(=O)O)c23)ccc(OCCN2CCN(C)CC2)c1Cl (stereo not shown) [Example 41]
assay_system: Mcl-1 protein (Homo sapiens)
IC50 (M): 3.45e-09
--
compound: Cc1c(-c2c(-c3ccc(F)cc3)sc3ncnc(OC(Cc4ccccc4OCc4ccnc(-c5cccc(OCCOCCO)c5)n4)C(=O)O)c23)ccc(OCCN2CCN(C)CC2)c1Cl (stereo not shown) [Example 39]
assay_system: Mcl-1 protein (Homo sapiens)
IC50 (M): 3.05e-09
--
compound: COC1OC(COc2ccc(-c3nccc(COc4ccccc4CC(Oc4ncnc5sc(-c6ccc(F)cc6)c(-c6ccc(OCCN7CCN(C)CC7)c(Cl)c6C)c45)C(=O)O)n3)cc2)C(O)C(O)C1O (stereo not shown) [Example 18]
assay_system: Mcl-1 protein (Homo sapiens)
IC50 (M): 4.1e-09

A. Cc1c(-c2c(-c3ccc(F)cc3)sc3ncnc(OC(Cc4ccccc4OCc4ccnc(-c5ccc(OCCOCCO)cc5)n4)C(=O)O)c23)ccc(OCCN2CCN(C)CC2)c1Cl (stereo not shown) [Example 32]
B. Cc1c(-c2c(-c3ccc(F)cc3)sc3ncnc(OC(Cc4ccccc4OCc4ccnc(-c5cccc(OCCOCCOCCO)c5)n4)C(=O)O)c23)ccc(OCCN2CCN(C)CC2)c1Cl (stereo not shown) [Example 38]
Data request: For A and B , which recorded IC50 is lower? Indicate which entry you chose by stating its label.
Data returned: B
(B: 2.8e-09 M, A: 1.53e-08 M)

====

assay_system: Mcl-1 protein (Homo sapiens)
test_method_notes: Inhibition of Mcl-1 by the fluorescence polarisation technique
Type: binding
run_conditions: fluorescence polarisation test; Fluorescein labelled ligand 1 nM, Mcl-1 protein 5 nM, ~2 hours at r.t.; read-out: IC50 (M) Mcl-1 FP
Method: The relative binding potency of each compound was determined via Fluorescence Polarisation (FP). The method utilised a Fluorescein labelled ligand (Fluorescein-βAla-Ahx-A-REIGAQLRRMADDLNAQY-OH; mw 2,765) which binds to the Mcl-1 protein (such that Mcl-1 corresponds to the UniProtKB® primary accession number: Q07820) leading to an increased anisotropy measured in milli-polarisation (mP) units using a reader. […]
reported_property: IC50 (M)

compound: COCCOCCOc1ccc(-c2nccc(COc3ccccc3CC(Oc3ncnc4sc(-c5ccc(F)cc5)c(-c5ccc(OCCN6CCN(C)CC6)c(Cl)c5C)c34)C(=O)O)n2)cc1 (stereo not drawn) [Example 31]
assay_system: Mcl-1 protein (Homo sapiens)
units_of_measure: M
IC50: 3.85e-09

compound: COCCOCCOc1cccc(-c2nccc(COc3ccccc3CC(Oc3ncnc4sc(-c5ccc(F)cc5)c(-c5ccc(OCCN6CCN(C)CC6)c(Cl)c5C)c34)C(=O)O)n2)c1 (stereo not drawn) [Example 40]
assay_system: Mcl-1 protein (Homo sapiens)
units_of_measure: M
IC50: 3.75e-09

compound: Cc1c(-c2c(-c3ccc(F)cc3)sc3ncnc(OC(Cc4ccccc4OCc4ccnc(-c5ccccc5OCCO)n4)C(=O)O)c23)ccc(OCCN2CCN(C)CC2)c1Cl (stereo not drawn) [Example 26]
assay_system: Mcl-1 protein (Homo sapiens)
units_of_measure: M
IC50: 3.45e-09
